# procedure.text: Physiologically-based population pharmacokinetic analysis of CNS 7056 (Studies CNS 7056-001 and CNS 7056-002)
# measurement.context: human, plasma, intravenous, Clearance, Subject 1210
recorded.metric: clearance (mL/min)
Give bare numbers, in mL/min.

query: clearance lookup needed for COC(=O)CC[C@@H]1N=C(c2ccccn2)c2cc(Br)ccc2-n2c(C)cnc21 , thanks.
result: 732
